Cited source for all entries: the supplement of paper PMC9170038

Parameter: apparent KD of MS2 coat protein. Scope: all listed entries.
- Test system: MS2 coat protein
- test.description: apparent KD of MS2 coat protein; designed switch direction (-1 OFF switch, 1 ON switch): 1; higher = weaker reporter binding
- test.settings: Eterna round: R95; input ligand: microRNA oligo, concentration not stated
State just the number; it will be interpreted in µM.

What does the record list as apparent KD of MS2 coat protein for UUGCGCUGUCGAGAGGAUAUGCGGUGAUGGACAUGAGGAUCACCCAUGUUAGCGAUAGCAUUACGGUAGAAGGCUCUUCAGCUGC [salish99_ss2_r3_095] (puzzle: Same State 2) ? 0.0218

I'd like to know its apparent KD of MS2 coat protein. The sequence in question is AGUCCAGCCUGAGCUGGACUGAAGCAUGUACAUGAGGAUCACCCAUGUUCAUGUACAGGCUUUUUGCUCGUCUUAUG [JL-shm-2.02 JL mod] (puzzle: Sensor for hsa-mir-208a) 0.0182

So what does the record say about apparent KD of MS2 coat protein for UUCUUACAUGAGGAUCACCCAUGUGUUGUCGUGGGAGGAUAUCCUGGUUCGGUGGCGUUGGGAGAAGGCCUAUGUU [× ×•×ª×• ×ž×“×™× ×” × ×—×ª-19] (puzzle: Same State 1) ? 0.134

So what's the measured apparent KD of MS2 coat protein for this one? AGUCCAGCCUGAGCUGGACAAAAGCAUGUACAUGAGGAUCACCCAUGUUCAUGUACAAGCUUUUUGCUCGUCGUAAU [Mat - hsa-mir-208a - Mod of JL - 48] (puzzle: Sensor for hsa-mir-208a) 0.0167

// query apparent KD of MS2 coat protein value for entry GUAAAACAUGAGGAUCACCCAUGUCAACAAAGUCGAGGAUAUGGGCAAAUAAAAUAAGAACCAGAAGGCGAAUAAC [salish99_SS1_r3_010] (puzzle: Same State 1) 0.377

Data request, read-out apparent KD of MS2 coat protein, for GUAAUACAUGAGGAUCACCCAUGUCAAUGUAGUCGAGGAUAUGGGUAGCUAUGUGGCUUACUAGAAGGCGACGAGC [Same State 1 - Mod of Vinnie Teenbexe v.4] (puzzle: Same State 1) 0.157

Which value of apparent KD of MS2 coat protein has been reported for AUAAAACAUGAGGAUCACCCAUGUCAACAAAGUCGAGGAUAUGGGCAAAGAAAAGAAUAACCAGAAGGCGAAUAAU [salish99_ss1_r3_055] (puzzle: Same State 1) in the records? 0.315

Entry AAUAAUUUACAUGAGGAUCACCCAUGUGGUAAACAUGCUUUUUGCUCGUCUUAUGGUUUUUUUUUUUUUUUUUUUUU [viviankchen1] (puzzle: Sensor for hsa-mir-208a version 2) has what apparent KD of MS2 coat protein? 0.0496

Which apparent KD of MS2 coat protein value is on record for GAGAGAGGAAGCGAGGAUAUCGUGUUAGGUACAUGAGGAUCACCCAUGUUGUAGGUAGAGGUAGGCGAGAAGGCGCAGGAGAGGU [JR_SS2_Sub095] (puzzle: Same State 2) ? 0.0264

Sample AGAGAACAUGAGGAUCACCCAUGUGGGAUGGGCAUAGGAUAUAGAGGAGAGAGGGAGGAACUAGAAGGAUGAUGGA [JR_SS1_Sub079] (puzzle: Same State 1) — what was its apparent KD of MS2 coat protein? 0.103

Field request: apparent KD of MS2 coat protein | item: GACCAACAUGAGGAUCACCCAUGUUUCUGAGGCACAGGAUAUCGACAGGCAAGACACCUGCGAGAAGGGUGACCUC [Same State 1 - Mod of Vinnie Diatater v.3] (puzzle: Same State 1) 0.0388

Query (sequence): CGGCGCUGUCGAGAGGAUAUGCGGUGAUGGACAUGAGGAUCACCCAUGUUAGCGAUAGCAUCACGGUAGAAGGCUCCACAGCCGU [Soteed Omei mod 13] (puzzle: Same State 2) ; field requested: apparent KD of MS2 coat protein 0.023

Request the reported apparent KD of MS2 coat protein associated with AUUUAACAAGCUUUUUGCUCGUCUUAUAAACAUGAGGAUCACCCAUGUAAUAGCGUGAGAGUAAAUUUAUAAAUAAU [JMF 88] (puzzle: Sensor for hsa-mir-208a) 0.0425

Any idea what its apparent KD of MS2 coat protein is? The sequence is UCUUGGUUUUUGCUCGUUUUUUGUGUUGAACAUGAGGAUCACCCAUGUAUUGUACGAUCCAGUUAGAUGGUGGUUUG [JR_SHM208A_Sub044] (puzzle: Sensor for hsa-mir-208a) 0.0701

Reported apparent KD of MS2 coat protein, sequence CUUGAUACACAUGAGGAUCACCCAUGUAUCAAGCUUUUUGCUCGUGUUAUUAUUUCCUUUAUUAGGAAUAUUAGGAA [rhiju-sequester-tail] (puzzle: Sensor for hsa-mir-208a version 2) : ____ 0.0144

Request the reported apparent KD of MS2 coat protein associated with AUUAAACAUGAGGAUCACCCAUGUCAACAAAGUCGAGGAUAUGGGCAAAUAAUAUAAGAACCAGAAGGCGAAUAAU [salish99_ss1_r3_058] (puzzle: Same State 1) 0.44

apparent KD of MS2 coat protein for AUAAAACAUGAGGAUCACCCAUGUCUCUAAAGUCGAGGAUAUGGGCAAAUAAUAUAAGAACCAGAAGGCGAAUAAU [SS1 Teenbexe 3] (puzzle: Same State 1) ? 0.0512

###

- System: MS2 coat protein
- test.description: apparent KD of MS2 coat protein; higher = weaker reporter binding
- test.settings: Eterna round: R107; input ligand: theophylline 20 uM
Here the recorded apparent KD of MS2 coat protein is given for each entry.
Enter the number, and then the unit.

For orientation, consider the following solved cases.
monomer.sequence: AAACAUUGCUGCGAUACCAGACAUGAGGAUCACCCAUGUACCAAGGUAAGAAAAUAACAUGUCCCUUGGCAGCGCAGCAAUGAAA [MAT - Exclusion Theophlline B - Mod of Eli - D2]
apparent KD of MS2 coat protein: 33.4 nM
//
monomer.sequence: AGAAUAUAGUCGGCCGCCACUCUACAUACAUGAGGAUCACCCAUGUUUACAUAGUGGAAACACAUGAGGACCGGGACAUAGGCAU [#16 Same State - Tryptophan B]
apparent KD of MS2 coat protein: 13.2 nM
//
monomer.sequence: GCACAAGAUGGAAGGAGCGCUGGAAAAGGUCACAUGAGGAUCACCCAUGUUCUCCUAACCGAGCAGGUAGGUCGCCAUCUUGUGC [SSAB NP+V+V2 #1]
apparent KD of MS2 coat protein: 25.6 nM
//
monomer.sequence: UGGGUCGGAUGAGGAAAUUGUCCGACGUAUCGAGGACCGGUACGGCCGCCACUCGGUUGUACAUGAGGAUCACCCAUGUCAGGGU [#1 Same State - Tryptophan A Attempt #15 (HarryS)]
apparent KD of MS2 coat protein: 269 nM
//
monomer.sequence: UAUCGUCAGACGGCCGCCACUAGAACAUGAGGAUCACCCAUGUACGGCCGCUCGGUCCUCAUGACUAGGACCGGGUCUGACGAAU [(Trp1)-(Ms2)-(T)'-(M)'-(Trp2)_Design22]
apparent KD of MS2 coat protein: 16.9 nM

Fill in: apparent KD of MS2 coat protein of AUAUUAAUCGGAAGGAGCGGUACAUGAGGAUCACCCAUGUGCUAAGCUAGCAGAUCCCGUUACCAGGUAGGUCGCCGAGUUAUGA [Titeonra] is ___ 30.9 nM

Report apparent KD of MS2 coat protein for AAAUAUAACUCGGCCGCCACUGACAUGAGGAUCACCCAUGUUAUAUUUUAUACAUGAGGAUCACCCAGGACCGGGAGAAUAUAAA [Jonah 1] please. 484 nM

# apparent KD of MS2 coat protein lookup, item UCCAUCGGCGGAAGCCGAUGGUUUACAGAAGGAGCGUAGGAAACUACAGGUAGGUCGCUGGACAUGAGGAUCACCCAUGUGUUUU [SSAA #12] 22.4 nM

For GUCUUGGGAUCGGCCGCCACUACAUGAGGAUCACCCAUGUGGACAAAUAGGGUUUUUAAGCUCGGUAGGACCGGGAUUCGGACAU [Marasosoge] , what is its reported apparent KD of MS2 coat protein? 16.7 nM

Quick check: apparent KD of MS2 coat protein of AACAUGAGGAUCACCCAUGUCAUGUUGGAUACCAGCCAAUAAUAAGGCCCUUGGCAGCUAUAGAUCGAUGAUCCAUGAGGAUCAC [Exclusion Theophylline A] ? 49.4 nM

For the sequence shown here, UGUAUGGACUGAAGGAGCGCCUCAAAAUAACAUGAGGAUCACCCAUGUGGCGAAAGCCAAGGGCAGGUAGGUCGCAGUCCAUACU [ArgBX 4 #StaticStem #MS2Late] , give the reported apparent KD of MS2 coat protein. 34.2 nM

Suppose we examine the sequence AAUAUAUAUCACGAACUGUGGUGUAUGUUCCGAGGACCGGUACGGCCGCCACUCGCGUGGUUCCACAUGAGGAUCACCCAUGUUG [XTryp A #8] ; what apparent KD of MS2 coat protein value has been reported? 29.4 nM
